Origin of measurements: ChEMBL document CHEMBL1129393

I'd appreciate it if you could supply Log Ki values for the items below.
Target: SB-204269 binding site
Experiment: Inhibition of [3H]-SB 204269 binding to rat forebrain membranes.
Assay type: cell membranes, Membrane
The answer should be written as a number, with no unit following it.

Incoming: API: value(readout= Log Ki, system= SB-204269 binding site, query= CC(=O)c1ccc2c(c1)[C@H](NC(=O)c1ccccc1)[C@@H](O)C(C)(C)O2 )
Outgoing: -7.3

Incoming: Could you do the same for CC1(C)Oc2ccc(C(N)=O)cc2C(NC(=O)c2ccc(F)cc2)C1O (stereo not given) , please?
Outgoing: -6.06

Incoming: Another compound: Cc1ccc2c(c1)C(NC(=O)c1ccc(F)cc1)C(O)C(C)(C)O2 (stereo not given)
Outgoing: -5.3

Incoming: Also CCC(=O)c1ccc2c(c1)C(NC(=O)c1ccc(F)cc1)C(O)C(C)(C)O2 (stereo not given) ?
Outgoing: -6.8
